Each record here notes measured SPOT peptide array binding signal intensity.
target: AgHse1; test: SPOT peptide array binding signal intensity (averaged, normalized) (arbitrary units (background-subtracted, floor 0; scale differs between SH3 domains)); higher = stronger binding of the SH3 domain to the peptide
Write no unit; give the number alone.

Here is how some binders turned out for SPOT peptide array binding signal intensity.
LKHGWKPLRPIKLIS :: 252
MKRSRPSRSIPYTTP :: 274
IVNKPLPPLPVAGSS :: 17.5
TPTSGPPLLPPRNTM :: 65.5
ISPPASPPPEFDFSK :: 27.5
PHNPSPFFPPPDFND :: 71

Consider the additional binder presented here.
Problem: Looking for the measured SPOT peptide array binding signal intensity of SKAKRPKFLLDLQIK , can you help?
Solution: 154
